# System: HS729
# Assay Details: relative viability vs DMSO control (72 h) (fraction); higher = more viable cells
# Measurement Context: 0.3704 µM
Checkbox rule: relative viability lower than 0.8 = 1; relative viability not lower than 0.8 = -1.

Field: example entries. Status: answers known.
INSERT INTO assay_data (compound, class_assignment) VALUES
  ('N#Cc1ccnc(N2C(=O)CC[C@H]2C(=O)N(c2cncc(F)c2)[C@H](C(=O)NC2CC(F)(F)C2)c2ccccc2Cl)c1', -1),
  ('COc1cc2ncnc(Nc3cccc(Cl)c3F)c2cc1OC(=O)N1CCN(C)C[C@H]1C', -1),
  ('COc1cc(OC)cc(N(CCNC(C)C)c2ccc3ncc(-c4cnn(C)c4)nc3c2)c1', 1),
  ('CO[C@H]1C[C@@H]2CC[C@@H](C)[C@@](O)(O2)C(=O)C(=O)N2CCCC[C@H]2C(=O)O[C@H]([C@H](C)C[C@@H]2CC[C@@H](O)[C@H](OC)C2)CC(=O)[C@H](C)/C=C(\C)[C@@H](O)[C@@H](OC)C(=O)[C@H](C)C[C@H](C)/C=C/C=C/C=C/1C', -1);

Below: the item to evaluate.
Exam item: Is the reported relative viability for `Cc1cc(Nc2ncc(Cl)c(Nc3ccccc3S(=O)(=O)C(C)C)n2)c(OC(C)C)cc1C1CCNCC1` strictly below 0.8?
Marked response: -1

* * *

# Test system: SYO-1
# Assay Details: relative viability vs DMSO control (72 h) (fraction); higher = more viable cells
# Measurement Context: 0.00051 µM
Measurement Kind: relative viability
Answer using only a numeral; do not append any unit.

Consider the worked cases shown below.
INSERT INTO results (compound, number) VALUES
  ('CO[C@@H]1[C@H](N(C)C(=O)c2ccccc2)C[C@H]2O[C@]1(C)n1c3ccccc3c3c4c(c5c6ccccc6n2c5c31)C(=O)NC4 [Midostaurin]', 0.946),
  ('CN(C)C[C@@H]1CCn2cc(c3ccccc32)C2=C(C(=O)NC2=O)c2cn(c3ccccc23)CCO1 [Ruboxistaurin]', 0.955),
  ('C[C@@H](Oc1cc(-c2cnn(C3CCNCC3)c2)cnc1N)c1c(Cl)ccc(F)c1Cl [Crizotinib]', 0.982);

Exam item: Entry under review: COc1cc2ncnc(Nc3ccc(F)c(Cl)c3)c2cc1NC(=O)/C=C/CN1CCCCC1 [Dacomitinib] . Reported relative viability?
Marked response: 1.02

* * *

# Tested on: SK-LMS-1
# Assay Details: relative viability vs DMSO control (72 h) (fraction); higher = more viable cells
# Measurement Context: 0.1235 µM
Measurement Kind: relative viability
Answer using only a numeral; do not append any unit.

INSERT INTO results (molecule, measured_target, number) VALUES
  ('NC(=O)c1cccc2cn(-c3ccc([C@@H]4CCCNC4)cc3)nc12 [Niraparib]', 'SK-LMS-1', 1.12);

Exam item: Entry under review: COc1cc2nccc(Oc3ccc(NC(=O)NC4CC4)c(Cl)c3)c2cc1C(N)=O [Lenvatinib] . Reported relative viability?
Marked response: 0.997

Exam item: Same lookup for CC[C@@H]1C(=O)N(C)c2cnc(Nc3ccc(C(=O)N[C@H]4CC[C@H](N5CCN(CC6CC6)CC5)CC4)cc3OC)nc2N1C(C)C [Volasertib] , please.
Marked response: 0.492

Exam item: Same lookup for CCCCCCCCCCCCCCCCCCOP(=O)([O-])OC1CC[N+](C)(C)CC1 [Perifosine] , please.
Marked response: 1.02
